GI50 by entry:
# Test system: SF-268 CNS
# protocol-summary: NCI tumour cell line growth inhibition, 48 h
result-type: GI50

molecule	endpoint-result
COc1ccc(S(=O)(=O)N2CC(C)(C)CN(S(=O)(=O)c3ccc(OC)cc3)C2C(=O)NO)cc1	> 20000 nM
COC(=O)c1c2c(c[n+]([O-])c1C)C(=O)C=CC2=O	2830 nM
COc1cccc(-c2cc(=O)c3cc(OC)ccc3[nH]2)c1	626 nM
Nc1ccc(C2=NN(c3ccccc3)C(c3ccc(Cl)cc3)C2)cc1 (centres undefined)	4220 nM

###

# Test system: SR leukemia
# protocol-summary: NCI tumour cell line growth inhibition, 48 h; in the data active = GI50 below about 0.43 µM; inactive = the rest
Classes used: active, inactive

compound	assigned-label
CN(C)CCCOc1ccc(-c2ccc3ncc4c(c3c2)n(C2CCOCC2)c(=O)n4C)cn1	inactive
CCN(Cc1cccc(F)c1)c1ccc(CO)c(Cl)c1	inactive
COc1ccc(-c2cn[nH]c2-c2cc(OC)c3c(c2)OCO3)cc1	active
COC(=O)[C@@H](C)C[C@H](Cc1ccccc1)NC(=O)c1csc(CC[C@H](C(C)C)N(C)C(=O)[C@@H](NC(=O)[C@H]2CCCCN2C)C(C)C)n1	active
Cc1nn(-c2nc3ccccc3[nH]2)c(N)c1-c1ccc(Cl)cc1	inactive
C#CCOc1cccc(-c2ncnc3cc(NC(=O)CCl)ccc23)c1	active
COC(=O)c1c2c(c[n+]([O-])c1C)C(=O)C=CC2=O	inactive
OCc1ccc(-c2ccc(-c3ccc(CO)o3)[se]2)o1	inactive
COc1cccc(-c2nc3sccn3c2-c2ccnc(NCCCNS(=O)(=O)c3cccc(F)c3)c2)c1	inactive
O=C1c2ccccc2-c2c1c1c(=O)[nH]c3ccccc3c1n2Cc1ccccc1	inactive
C=C1C(=O)O[C@H]2C[C@@H]1CC/C(C)=C/CC/C(C)=C/CC[C@H]2C	inactive
Nc1ccc(C2=NN(c3ccccc3)C(c3ccc(Cl)cc3)C2)cc1 (stereo not given)	inactive
COc1cc(/C=C2\C(=O)Nc3cc(C)c(O)cc32)cc(OC)c1OC	inactive
CCOC(=O)N1CCN(c2nc(Nc3cc(C)[nH]n3)c3ccccc3n2)CC1	inactive
CCc1cccc(C)c1NC(=O)c1sc2nc3c(cc2c1N)CCCCC3	inactive

###

# System: SF-539 CNS
# protocol-summary: NCI tumour cell line growth inhibition, 48 h
result-type: GI50

smiles-entry	result-type	endpoint-result
[Cl-].[O-]/N=C(\c1ccccc1)c1ccccn1.[O-]/N=C(\c1ccccc1)c1ccccn1.[O-]/N=C(\c1ccccc1)c1ccccn1.[Sm+3]	GI50	28100 nM
COc1cc(NC(N)=NCCC(C)(C)Oc2ccc(C(F)(F)F)cc2)ncc1C#N	GI50	1800 nM
CCc1cccc(C)c1NC(=O)c1sc2nc3c(cc2c1N)CCCCC3	GI50	2290 nM
C=C1C(=O)O[C@H]2C[C@@H]1CC/C(C)=C/CC/C(C)=C/CC[C@H]2C	GI50	15700 nM
COC(=O)CCc1c[nH]c2ccc(N(CCCl)CCCl)cc12	GI50	486 nM
CCOC(=O)c1sc(-c2ccc(OS(=O)(=O)c3ccc(Br)s3)c(C=O)c2)nc1C	GI50	2430 nM

###

# Tested on: DMS 273 small cell lung
# protocol-summary: NCI tumour cell line growth inhibition, 48 h

compound	TGI
COc1ccc(S(=O)(=O)Nc2ccccc2C(=O)O)cc1	> 100 µM
O=C(c1ccc(Cl)cc1)c1ccc(OCCCOc2ccc(C(=O)c3ccc(Cl)cc3)cc2)cc1	> 100 µM
Cc1c(Cl)c2ccccc2n1S(=O)(=O)c1ccccc1	> 100 µM
C#Cc1cccc(N2C(=O)CCC2=O)c1	47.4 µM
Cc1cccc2c(=O)c([Se]c3coc4c(C)cccc4c3=O)coc12	> 100 µM
COc1ccc(Nc2nc3ccc(C(F)(F)F)cc3nc2-c2ccccc2)cc1OC	> 100 µM
COC(=O)N(C(=O)OC)C(C(=O)O)C(C)C (stereo not given)	> 100 µM
Cc1ccc(N2Cc3c(ccc4ccccc34)OP2(=O)Oc2ccc(Cl)c(C)c2)cc1 (stereo not given)	> 100 µM
CCc1cc(Cc2cc(Cl)c(NC(=O)C(=O)C3NC(=O)NC3=O)c(CC)c2)cc(Cl)c1NC(=O)C(=O)C1NC(=O)NC1=O (stereo not given)	41.3 µM
CC(NC(=O)C(C)NC(=O)C(N)CCP(C)(=O)O)C(=O)O (stereo not given)	> 100 µM
O=C(/N=C/c1c(O)c2ccccc2oc1=O)Nc1ccccc1	> 100 µM
CC(C)OP(=O)(OC(C)C)/C(I)=N/Nc1ccc([N+](=O)[O-])cc1	> 100 µM
CC(=O)[O][Ga]([Cl])[O]C(C)=O	> 100 µM
NC(CCCC(N)P(=O)(O)c1ccccc1)P(=O)(O)c1ccccc1 (stereo not given)	> 261 µM
CN(C)c1ccc(C(=C(c2ccc(N(C)C)cc2)c2ccc(N(C)C)cc2)c2ccc(N(C)C)cc2)cc1	38.9 µM

###

# System: DU-145 prostate
# protocol-summary: NCI tumour cell line growth inhibition, 48 h
TGI by entry:
result-type: TGI

molecule	result-type	endpoint-result
Cc1nc(C)c(C(=O)NNC(N)=S)cc1C(=O)NNC(N)=S	TGI	> 100 µM
COC(=O)[C@@H](C)C[C@H](Cc1ccccc1)NC(=O)c1csc(CC[C@H](C(C)C)N(C)C(=O)[C@@H](NC(=O)[C@H]2CCCCN2C)C(C)C)n1	TGI	> 19.7 µM
COc1ccc(-c2cc(=O)c3ccc(C)nc3[nH]2)cc1	TGI	> 100 µM
C1CCC2(CC1)O[C@@H]1[C@@H](O2)[C@@H](O[C@H]2O[C@@H]3COC4(CCCCC4)O[C@H]3[C@@H]3OC4(CCCCC4)O[C@@H]23)O[C@@H]2COC3(CCCCC3)O[C@@H]12	TGI	> 100 µM
CCCCC(=O)NS(=NC(=O)c1ccccc1)C(Cl)(Cl)Cl (stereo not drawn)	TGI	> 100 µM
CC[N+](CC)=c1sc2c(s1)C(c1ccc(Cl)cc1)Oc1ccc(Cl)cc1-2 (stereo not drawn)	TGI	10.6 µM
COC(=O)CCC(=O)NC1=C(Nc2ccc(OC)cc2)C(=O)c2ccccc2C1=O	TGI	26.9 µM
CCN(Cc1cccc(F)c1)c1ccc(CO)c(Cl)c1	TGI	> 100 µM
Cc1[nH]c2c(c1C)S(=O)(=O)c1cc3ccccc3nc1N2	TGI	> 100 µM
CCCN1C(=O)CC(C)N(Cc2ccccc2Cl)C1=S (stereo not drawn)	TGI	> 100 µM
C[Si](C)(OCCS(=O)(=O)O)C1(Cc2cccc3ccccc23)S(=O)(=O)OCCOS1(=O)=O	TGI	37.4 µM
N/C(=N\S(=O)(=O)c1ccc(S(=O)(=O)c2ccccc2)s1)Nc1ccc(Cl)cc1	TGI	55.3 µM
CN(C)CCCNC(=O)c1cc(NC(=O)c2cc(NC(=O)CCc3c[nH]c4ccccc34)cn2C)cn1C	TGI	> 100 µM
COc1cc(/C=C2\C(=O)Nc3cc(C)c(O)cc32)cc(OC)c1OC	TGI	17.1 µM
O=S(=O)(c1ccccc1)n1c2ccc(Br)cc2c2nc3ccccc3nc21	TGI	> 100 µM
CNC(=O)c1ccc(N2CCN(Cc3ccc4nc(C)c(=O)[nH]c4c3F)CC2)c(F)n1	TGI	> 100 µM
O=C(c1ccccc1)N1CCN(C(=S)N(C(=O)c2ccccc2)c2ccccc2)C1=S	TGI	10.6 µM
COc1ccc2c(CCN)c(C(=O)O)[nH]c2c1	TGI	> 100 µM
C[C@]12CC[C@H]3[C@@H](CC=C4C[C@@H](N5CCCC5)CC[C@@]43C)[C@@H]1C[C@H](N1CCOCC1)[C@@H]2O	TGI	> 100 µM
CC(=O)[C@@]1(C)CC2(CCN(C)CC2)OC1C (stereo partly drawn)	TGI	> 100 µM
COC(=O)[C@]1(c2cc3ccccc3n2S(=O)(=O)c2ccccc2)CC2CN(C(C)=O)C1CC2=O (stereo partly drawn)	TGI	11.7 µM
Cc1ccc(C)c2c1C(O)(C#Cc1ccccc1)c1ccccc1C2(O)C#Cc1ccccc1 (stereo not drawn)	TGI	> 100 µM
CO[C@H]1/C=C/O[C@@]2(C)Oc3c(C)c(O)c4c(c3C2=O)C(=O)C(/C=N/N(c2ccccc2)c2ccccc2)=C(NC(=O)/C(C)=C\C=C\[C@H](C)[C@H](O)[C@@H](C)[C@@H](O)[C@@H](C)[C@H](OC(C)=O)[C@@H]1C)C4=O	TGI	3.51 µM
Cc1ccc(-c2csc(/N=C3\C(=O)Nc4ccccc43)n2)cc1	TGI	5.99 µM
FC(F)c1nc2ccccc2n1-c1nc(N2CCOCC2)nc(N2CCOCC2)n1	TGI	> 100 µM
S=C(Nc1ccc(Br)cc1)Nc1ccc(Br)cc1	TGI	> 100 µM
CCCCCCCCOC1C(O)C(O)C(O)C(O)C12CO2 (stereo not drawn)	TGI	> 100 µM
CC(=O)O[C@H]1CC[C@@]2(C)C(=CC[C@H]3[C@@H]4CC[C@H](c5cc(C(F)(F)F)n(C(C)=O)n5)[C@@]4(C)CC[C@@H]32)C1	TGI	23.5 µM
COc1ccc2c(c1)C(=O)c1c-2n(CCCN=[N+]=[N-])c(=O)c2cc(OC)c(OC)cc12	TGI	> 100 µM
COc1ccc2c(C)cc(N/N=C/c3ccc(OC)c4ccccc34)nc2c1	TGI	16.4 µM
CC(=O)OCCCOCn1c(Cc2ccccc2)c(C)c(=O)[nH]c1=O	TGI	> 100 µM
O=CN1CCN(C(=O)c2ccc(Cl)cc2Cl)C1=S	TGI	> 100 µM
CCCNNC(=O)/C=C/c1ccc(CNCCc2c(C)[nH]c3ccccc23)cc1	TGI	3.35 µM
C=C(c1ccc2nc(NC(=O)OC)[nH]c2c1)c1cccs1	TGI	> 100 µM
Cc1nn(-c2nc3ccccc3[nH]2)c(N)c1-c1ccc(Cl)cc1	TGI	> 100 µM
Cc1ccsc1/C=N/Nc1nc2ccccc2s1	TGI	> 100 µM
C#Cc1cccc(N2C(=O)CCC2=O)c1	TGI	28.3 µM
COc1ccc2nc3c([N+](=O)[O-])ccc4c3c(c2c1)NCCN4CCO	TGI	5.34 µM
